conditionSummary: in isopropanol, 303.15 K
reportedEndpoint: solubility (mole fraction)
Give only the figure.

Problem: Please report the recorded solubility (mole fraction) for c1ccc2c(c1)Cc1ccccc1-2 .
Solution: 0.00943

* * *

conditionSummary: in isopropanol, 318.15 K
reportedEndpoint: solubility (mole fraction)
Give only the figure.

Problem: Please report the recorded solubility (mole fraction) for c1ccc2c(c1)Cc1ccccc1-2 .
Solution: 0.0177

* * *

conditionSummary: in ethyl acetate, 298.15 K
reportedEndpoint: solubility (mole fraction)
Give only the figure.

Problem: Please report the recorded solubility (mole fraction) for c1ccc2c(c1)Cc1ccccc1-2 .
Solution: 0.0866

* * *

conditionSummary: in isopropanol, 293.15 K
reportedEndpoint: solubility (mole fraction)
Give only the figure.

Problem: Please report the recorded solubility (mole fraction) for c1ccc2c(c1)Cc1ccccc1-2 .
Solution: 0.00675
